Test Protocol: Solubility limit, turbidimetric assay
Type: physicochemical
Stated Conditions: pH 7.4, replicate 1; upper limit 200 µM
Property: Sol 1 (solubility limit)

For "CC(=NOCc1cccc(F)c1)c1c(C)cc(=O)n(O)c1O" , what is its reported Sol 1 (solubility limit)?
> 200 µM

For "CC(=NOCc1cccc(C)c1)c1c(C)cc(=O)n(O)c1O" , what is its reported Sol 1 (solubility limit)?
> 200 µM

For "CC(=NOCc1ccccc1Br)c1c(C)cc(=O)n(O)c1O" , what is its reported Sol 1 (solubility limit)?
50 µM

For "CC(=NOCc1cc(F)ccc1F)c1c(C)cc(=O)n(O)c1O" , what is its reported Sol 1 (solubility limit)?
> 200 µM

For "CC(=NOCc1ccc(C(F)(F)F)cc1)c1c(C)cc(=O)n(O)c1O" , what is its reported Sol 1 (solubility limit)?
> 200 µM

For "CC(=NOCc1ccccc1C)c1c(C)cc(=O)n(O)c1O" , what is its reported Sol 1 (solubility limit)?
25 µM

For "CC(=NOCc1ccc2ccccc2c1)c1c(C)cc(=O)n(O)c1O" , what is its reported Sol 1 (solubility limit)?
100 µM

For "CC(=NOCc1ccc(C)cc1)c1c(C)cc(=O)n(O)c1O" , what is its reported Sol 1 (solubility limit)?
> 200 µM

###

Please go through the items and note down their Papp 3 (PAMPA).
Test Protocol: Parallel artificial membrane permeability assay (PAMPA)
Assay type: in vitro ADME
Stated Conditions: FeSSIF pH 5, replicate 3
Numbers only here, please. The scale is ×10⁻⁶ cm/s.

For "CC(=NOCc1ccc(OCc2ccccc2)cc1)c1c(C)cc(=O)n(O)c1O" , what is its reported Papp 3 (PAMPA)?
3.74

For "CC(=NOCc1cccc(Cl)c1)c1c(C)cc(=O)n(O)c1O" , what is its reported Papp 3 (PAMPA)?
90.3

For "CC(=NOCc1ccc(OCc2ccc(C(C)(C)C)cc2)cc1)c1c(C)cc(=O)n(O)c1O" , what is its reported Papp 3 (PAMPA)?
81.4

For "CC(=NOCc1ccc(F)cc1F)c1c(C)cc(=O)n(O)c1O" , what is its reported Papp 3 (PAMPA)?
44.2

###

Test Protocol: Parallel artificial membrane permeability assay (PAMPA)
Format: in vitro ADME
Stated Conditions: pH 7.4
Property: Interpretation (PAMPA Papp)

{"columns": ["Molecule", "Property", "Result"],
 "data": [
  ["CC(=NOCc1cccc(C)c1)c1c(C)cc(=O)n(O)c1O", "Interpretation (PAMPA Papp)", "H (H: Papp > 1*10-6)"],
  ["CC(=NOCc1ccccc1C)c1c(C)cc(=O)n(O)c1O", "Interpretation (PAMPA Papp)", "H (H: Papp > 1*10-6)"],
  ["CC(=NOCc1ccc(OCc2ccc3ccccc3c2)cc1)c1c(C)cc(=O)n(O)c1O", "Interpretation (PAMPA Papp)", "H (H: Papp > 1*10-6)"],
  ["CC(=NOCc1cccc(Br)c1)c1c(C)cc(=O)n(O)c1O", "Interpretation (PAMPA Papp)", "H (H: Papp > 1*10-6)"],
  ["CC(=NOCc1ccc(C)cc1)c1c(C)cc(=O)n(O)c1O", "Interpretation (PAMPA Papp)", "H (H: Papp > 1*10-6)"]
]}

For "CC(=NOCc1ccc(Cl)cc1)c1c(C)cc(=O)n(O)c1O" , what is its reported Interpretation (PAMPA Papp)?
H (H: Papp > 1*10-6)

For "CC(=NOCc1ccc(OCc2ccc(C(C)(C)C)cc2)cc1)c1c(C)cc(=O)n(O)c1O" , what is its reported Interpretation (PAMPA Papp)?
H (H: Papp > 1*10-6)

###

Test Protocol: Solubility limit, turbidimetric assay
Format: physicochemical
Stated Conditions: pH 6.5 (fasted simulated intestinal fluid); upper limit 200 µM
Description: Solubility limits were determined by a turbidimetric assay, as described ([27]), with the solubility limit being defined as the compound concentration where light scattering began to rise. Two or more replicate assays were performed for each compound at each pH on different days.
Please go through the items and note down their Average Sol (solubility limit).
Numbers only here, please. The scale is µM.

For CC(=NOCc1cc(F)ccc1F)c1c(C)cc(=O)n(O)c1O [Compound 1810] , what is its reported Average Sol (solubility limit)?
100

For CC(=NOCc1ccc(Br)cc1)c1c(C)cc(=O)n(O)c1O [Compound 1717] , what is its reported Average Sol (solubility limit)?
50

For CC(=NOCc1ccc(C(F)(F)F)cc1)c1c(C)cc(=O)n(O)c1O [Compound 1235] , what is its reported Average Sol (solubility limit)?
167

For CC(=NOCc1ccccc1Br)c1c(C)cc(=O)n(O)c1O [Compound 1718] , what is its reported Average Sol (solubility limit)?
138

###

Tested on: HBV replication (HBV plus-polarity DNA strand)
Test Protocol: HBV replication inhibition, strand preferential qPCR in hepDES19 cells
Type: cell-based, hepatitis B virus
Please go through the items and note down their HepDES19 SI (CC50/EC50).
Quick one: just the number, no unit, thanks!

For "CC(=NOCc1cc(F)ccc1F)c1c(C)cc(=O)n(O)c1O" , what is its reported HepDES19 SI (CC50/EC50)?
54.0

For "CC(=NOCc1ccc(C(F)(F)F)cc1)c1c(C)cc(=O)n(O)c1O" , what is its reported HepDES19 SI (CC50/EC50)?
26.3

For "CC(=NOCc1ccc(C)cc1)c1c(C)cc(=O)n(O)c1O" , what is its reported HepDES19 SI (CC50/EC50)?
112

For "CC(=NOCc1ccc(F)cc1F)c1c(C)cc(=O)n(O)c1O" , what is its reported HepDES19 SI (CC50/EC50)?
281

For "CC(=NOCc1cccc(Br)c1)c1c(C)cc(=O)n(O)c1O" , what is its reported HepDES19 SI (CC50/EC50)?
192

For "CC(=NOCc1ccccc1C)c1c(C)cc(=O)n(O)c1O" , what is its reported HepDES19 SI (CC50/EC50)?
25.2

For "CC(=NOCc1ccc(Br)cc1)c1c(C)cc(=O)n(O)c1O" , what is its reported HepDES19 SI (CC50/EC50)?
52.7

For "CC(=NOCc1cccc(Cl)c1)c1c(C)cc(=O)n(O)c1O" , what is its reported HepDES19 SI (CC50/EC50)?
34.5

For "COc1ccc(CON=C(C)c2c(C)cc(=O)n(O)c2O)cc1OC" , what is its reported HepDES19 SI (CC50/EC50)?
80.6

###

Test system: HepDES19 cells
Stated Conditions: read-out: HepDES19 CC50; 72 h, MTS; highest concentration tested 100 µM; mean ± SD
Property: CC50

For "CC(=NOCc1ccc(OCc2ccccc2)cc1)c1c(C)cc(=O)n(O)c1O" , what is its reported CC50?
51.4 µM

For "CC(=NOCc1cccc(Cl)c1)c1c(C)cc(=O)n(O)c1O" , what is its reported CC50?
56.9 µM

For "CC(=NOCc1ccc(OCc2ccc3ccccc3c2)cc1)c1c(C)cc(=O)n(O)c1O" , what is its reported CC50?
68.6 µM

For "CC(=NOCc1ccc(Cl)cc1)c1c(C)cc(=O)n(O)c1O" , what is its reported CC50?
46.6 µM

For "CC(=NOCc1ccc(C)cc1)c1c(C)cc(=O)n(O)c1O" , what is its reported CC50?
33.1 µM

For "CC(=NOCc1ccc(F)c(F)c1)c1c(C)cc(=O)n(O)c1O" , what is its reported CC50?
72.9 µM

For "CC(=NOCc1cccc(Br)c1)c1c(C)cc(=O)n(O)c1O" , what is its reported CC50?
78.5 µM

For "CC(=NOCc1cc(F)ccc1F)c1c(C)cc(=O)n(O)c1O" , what is its reported CC50?
> 100 µM

For "CC(=NOCc1ccc(OCc2ccc(C(C)(C)C)cc2)cc1)c1c(C)cc(=O)n(O)c1O" , what is its reported CC50?
38.2 µM

###

Please go through the items and note down their Sol 1 (solubility limit).
Test Protocol: Solubility limit, turbidimetric assay
Type: physicochemical
Stated Conditions: pH 7.4, replicate 1; upper limit 200 µM

For "CC(=NOCc1cccc(Br)c1)c1c(C)cc(=O)n(O)c1O" , what is its reported Sol 1 (solubility limit)?
> 200 µM

For "CC(=NOCc1ccc(Cl)cc1)c1c(C)cc(=O)n(O)c1O" , what is its reported Sol 1 (solubility limit)?
> 200 µM

For "CC(=NOCc1ccc(Br)cc1)c1c(C)cc(=O)n(O)c1O" , what is its reported Sol 1 (solubility limit)?
50 µM

For "CC(=NOCc1ccc(OCc2ccc3ccccc3c2)cc1)c1c(C)cc(=O)n(O)c1O" , what is its reported Sol 1 (solubility limit)?
> 200 µM

For "COc1ccc(CON=C(C)c2c(C)cc(=O)n(O)c2O)cc1OC" , what is its reported Sol 1 (solubility limit)?
> 200 µM
